FYI, the data here is from patent US20050256058A1.

Measured IC50 by item
assayedTarget: T1, schistosome legumain SmAE (Schistosoma mansoni asparaginyl endopeptidase) (Schistosoma mansoni), P09841
T1 chain: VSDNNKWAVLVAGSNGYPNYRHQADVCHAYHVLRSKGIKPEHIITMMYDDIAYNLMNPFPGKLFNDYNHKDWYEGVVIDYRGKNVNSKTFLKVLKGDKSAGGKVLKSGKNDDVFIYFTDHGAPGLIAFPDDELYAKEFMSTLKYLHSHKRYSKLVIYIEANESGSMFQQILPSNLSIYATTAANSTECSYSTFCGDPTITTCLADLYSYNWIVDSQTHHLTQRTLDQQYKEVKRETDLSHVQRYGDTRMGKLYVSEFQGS
assayProcedure: cell-based or functional assay
Square brackets hold non-standard residues; d marks the D form. * marks the point of attachment. CH:CH‑COOEt = CCOC(=O)/C=C/*; Cbz = O=C(OCc1ccccc1)*
Express your answer in nM, writing the number without its unit.

Here is how some binders turned out for IC50.
binder | readoutNumber
Cbz-Ala-Ala-[AAsn]-{CH:CH‑COOEt} [Cbz-Ala-Ala-AAsn-CH═CH-COOEt] | 31
AAN (modifications not checked) [Cbz-Ala-Ala-AAsn-CH═CH-CO-(4-Ph-Py)] | 750
AAN (modifications not checked) [Cbz-Ala-Ala-AAsn-CH═CH-CON(CH3)CH2CH2Ph] | 600

API: the following record is the query input.
In plain terms, AAN (modifications not checked) [Cbz-Ala-Ala-AAsn-CH═CH-CON(nBu)2] has a documented IC50 of 550
